target: Aryl hydrocarbon receptor (Homo sapiens) (UniProt P35869); assay: AHR activator potency, dose response, cell-based, luminescence, luciferase reporter, human (AID 493060); details: Human cell line AHR-responsive luciferase reporter
Sequence (P35869 whole entry, looked up): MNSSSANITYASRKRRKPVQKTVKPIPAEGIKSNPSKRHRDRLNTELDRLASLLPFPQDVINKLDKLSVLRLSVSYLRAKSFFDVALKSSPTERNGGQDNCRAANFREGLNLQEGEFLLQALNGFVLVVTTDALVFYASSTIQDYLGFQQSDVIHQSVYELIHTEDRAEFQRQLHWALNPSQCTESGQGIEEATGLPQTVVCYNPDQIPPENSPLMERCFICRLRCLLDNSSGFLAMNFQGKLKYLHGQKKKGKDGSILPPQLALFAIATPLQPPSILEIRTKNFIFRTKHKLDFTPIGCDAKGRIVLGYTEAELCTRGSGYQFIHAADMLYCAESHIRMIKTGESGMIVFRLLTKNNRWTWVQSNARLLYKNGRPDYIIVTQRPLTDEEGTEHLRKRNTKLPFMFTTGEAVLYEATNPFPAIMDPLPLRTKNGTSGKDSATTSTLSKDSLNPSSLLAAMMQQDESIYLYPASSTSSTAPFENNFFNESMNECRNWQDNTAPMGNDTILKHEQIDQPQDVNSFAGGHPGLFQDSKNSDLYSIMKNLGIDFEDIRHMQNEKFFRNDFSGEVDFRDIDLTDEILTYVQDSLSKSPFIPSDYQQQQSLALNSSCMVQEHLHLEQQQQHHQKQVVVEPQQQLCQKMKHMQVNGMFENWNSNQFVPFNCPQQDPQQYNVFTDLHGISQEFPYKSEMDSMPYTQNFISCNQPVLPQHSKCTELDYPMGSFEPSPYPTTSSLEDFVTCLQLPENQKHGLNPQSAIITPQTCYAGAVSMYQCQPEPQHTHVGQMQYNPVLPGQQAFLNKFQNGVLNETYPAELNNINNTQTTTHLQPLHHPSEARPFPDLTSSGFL
Calls of active or inactive are those of the source. How the calls were made is not given here.
Outcomes you can answer with include only these: active, inactive

SMILES_RECORD	CLASS_LABEL
O=C(Nc1ccon1)c1cnc2sccn2c1=O	inactive

Request: What was the test verdict on `CN1CCN(CCCNC(=O)c2cc3c(-c4ccc(Cl)cc4)nn(C)c3s2)CC1` ?
Response: active

---

molecular target: Aryl hydrocarbon receptor (Homo sapiens); assay: AHR activator potency, dose response, cell-based, luminescence, luciferase reporter, human (AID 493060); settings: Human cell line AHR-responsive luciferase reporter
EC50: recorded values

Request: Any idea what EC50 was measured for `COc1ccc(Cl)cc1C(=O)Nc1ccc(N(C)C(C)=O)cc1` ?
Response: 2.41 µM

Data credit: PubChem BioAssay AID493060
